B1: TMEM175 (parent)
chain: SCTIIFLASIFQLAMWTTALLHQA

variants of: B1; assay: protein stability index of a GFP-peptide fusion (GPS, HEK-293T) (PSI 1-6); higher = more stable; conditions: c terminus: a fixed tail appended;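 further: lentivirally expressed fusions sorted by FACS into six bins by GFP to DsRed ratio, PSI derived from sequencing read proportions per bin multiplied by bin number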
observed-property: protein stability index
# print the numeric value only

Enquiry: I have this variant here, A24T , and I need its recorded protein stability index.
Return: 3.01

Enquiry: Please answer likewise for L13Q
Return: 3.08

Enquiry: Please answer likewise for S9N
Return: 3.06

Enquiry: Please answer likewise for W16L
Return: 2.94

Enquiry: Please answer likewise for L13F
Return: 3.07

Enquiry: Please answer likewise for T17K
Return: 2.94

Enquiry: Please answer likewise for F11E
Return: 3.04

Enquiry: Please answer likewise for H22G
Return: 3.04

Enquiry: Please answer likewise for L20H
Return: 3.02

Source: the supplement of paper PMC10567573
